Counter-ions that a name gives are not always drawn.
REPORTED_PROPERTY: melting point (°C)
Numbers only, in °C.

For each of the items listed, what is its melting point?
1. CNC(=O)c1c(N)n(CCCOC)c2nc(-c3ccc(CC(=O)Nc4ccccn4)cc3)ccc2c1=O (as salt: HCl)
2. CCn1c(N)c(C(=O)NC)c(=O)c2ccc(-c3ccc(CC(=O)NCCc4ccccn4)cc3)nc21 (as salt: HCl)
3. CCN1CCOCC1CNC(=O)C(C)c1ccc(-c2ccc3c(=O)c(C(=O)NC)c(N)n(CC)c3n2)cc1 (centres unmarked) (as salt: HCl) [compound 25]

1: 230; 2: 248; 3: 190
